Measured target: hCA-IX (catalytic domain) (Homo sapiens, UniProt Q16790)
Assay info: Thermal shift assay (TSA / differential scanning fluorimetry)
Assay type: binding
Assay conditions: screening at 40 µM
Endpoint: Tm (°C)

- Molecule: "Cc1cc(C(=O)NS(=O)(=O)c2cccc(-n3cc(-c4ccc5nonc5c4)nn3)c2)on1"
  U: "°C"
  Obs value: 57.23
- Molecule: "COCC(=O)NS(=O)(=O)c1ccc(-c2cn(CCN(C)Cc3cccc(F)c3)nn2)cc1"
  U: "°C"
  Obs value: 56.98
- Molecule: "O=C(NS(=O)(=O)c1ccc(-c2cn(CC3COc4ccccc4O3)nn2)cc1)c1cnsc1 (stereo not shown)"
  U: "°C"
  Obs value: 57.51
- Molecule: "Cc1cc(C(=O)NS(=O)(=O)c2ccc(-c3cn(CCN(C)Cc4cccc(F)c4)nn3)cc2)ccn1"
  U: "°C"
  Obs value: 57.24

---

Measured target: hCA-II (full-length protein) (Homo sapiens, UniProt P00918)
Assay info: Thermal shift assay (TSA / differential scanning fluorimetry)
Assay conditions: read-out: ΔTm

- Compound: "Cc1cc(C(=O)NS(=O)(=O)c2ccc(-c3cn(CCN(C)Cc4cccc(F)c4)nn3)cc2)ccn1 [4{16,7,28}]"
  ΔTm at 20 µM: "0.03 °C"
- Compound: "COCC(=O)NS(=O)(=O)c1ccc(-c2cn(CCN(C)Cc3cccc(F)c3)nn2)cc1 [4{16,7,19}]"
  ΔTm at 20 µM: "-3.22 °C"
- Compound: "O=C(NS(=O)(=O)c1ccc(-c2cn(CC3COc4ccccc4O3)nn2)cc1)c1cnsc1 (stereo not shown) [4{17,7,27}]"
  ΔTm at 20 µM: "0.5 °C"
- Compound: "Cc1cc(C(=O)NS(=O)(=O)c2cccc(-n3cc(-c4ccc5nonc5c4)nn3)c2)on1 [7{2,21,60}]"
  ΔTm at 20 µM: "0.92 °C"

---

Measured target: hCA-II (full-length protein) (Homo sapiens, UniProt P00918)
Assay info: Thermal shift assay (TSA / differential scanning fluorimetry)
Assay conditions: hCA-II, screening at 20 µM
Listed here are molecules together with their documented Tm.

- Molecule: "COCC(=O)NS(=O)(=O)c1ccc(-c2cn(CCN(C)Cc3cccc(F)c3)nn2)cc1"
  Tm (°C): 51.10
- Molecule: "Cc1cc(C(=O)NS(=O)(=O)c2cccc(-n3cc(-c4ccc5nonc5c4)nn3)c2)on1"
  Tm (°C): 55.24
- Molecule: "O=C(NS(=O)(=O)c1ccc(-c2cn(CC3COc4ccccc4O3)nn2)cc1)c1cnsc1 (stereo not shown)"
  Tm (°C): 54.82
- Molecule: "Cc1cc(C(=O)NS(=O)(=O)c2ccc(-c3cn(CCN(C)Cc4cccc(F)c4)nn3)cc2)ccn1"
  Tm (°C): 54.35

---

Measured target: hCA-II (Homo sapiens)
Construct: recombinant hCA-IX (catalytic domain) and hCA-II (full-length protein); made in house; host or cells: E. coli
Assay info: hCA esterase activity inhibition assay (p-nitrophenyl acetate hydrolysis) with IC50 determination
Type: biochemical
Assay conditions: hCA-II; bound stated; read-out: potency (IC50)
Endpoint: IC50

- Compound: "Cc1cc(C(=O)NS(=O)(=O)c2ccc(-c3cn(CCN(C)Cc4cccc(F)c4)nn3)cc2)ccn1"
  Endpoint: "IC50"
  Obs value: "< 10 µM"
- Compound: "COCC(=O)NS(=O)(=O)c1ccc(-c2cn(CCN(C)Cc3cccc(F)c3)nn2)cc1"
  Endpoint: "IC50"
  Obs value: "< 10 µM"

---

Measured target: hCA-IX (catalytic domain) (Homo sapiens)
Assay info: hCA esterase activity inhibition assay (p-nitrophenyl acetate hydrolysis) with IC50 determination
Type: biochemical
Assay conditions: 917 nM hCA-IX, 4-NPA, 10-point curve, n = 4; listed as 4(16,7,28); read-out: IC50
pIC50: −log10 of the molar value.

- Compound: "Cc1cc(C(=O)NS(=O)(=O)c2ccc(-c3cn(CCN(C)Cc4cccc(F)c4)nn3)cc2)ccn1"
  pIC50: 5.15

---

Reported pIC50 values are given for each entry in this list.
Measured target: hCA-II (Homo sapiens)
Construct: recombinant hCA-IX (catalytic domain) and hCA-II (full-length protein); made in house; host or cells: E. coli
Assay info: hCA esterase activity inhibition assay (p-nitrophenyl acetate hydrolysis) with IC50 determination
Format: biochemical
Assay conditions: 200 nM hCA-II, 0.5 mM 4-NPA, 10-point curve, n = 4; read-out: IC50
pIC50: −log10 of the molar value.
Endpoint: pIC50

- Compound: "COCC(=O)NS(=O)(=O)c1ccc(-c2cn(CCN(C)Cc3cccc(F)c3)nn2)cc1"
  Obs value: 6.70
- Compound: "Cc1cc(C(=O)NS(=O)(=O)c2ccc(-c3cn(CCN(C)Cc4cccc(F)c4)nn3)cc2)ccn1"
  Obs value: 5.77

---

Measured target: hCA-IX (catalytic domain) (Homo sapiens)
Assay info: Thermal shift assay (TSA / differential scanning fluorimetry)
Type: binding
Assay conditions: screening at 20 µM
Endpoint: Tm (°C)

- Molecule: "Cc1cc(C(=O)NS(=O)(=O)c2cccc(-n3cc(-c4ccc5nonc5c4)nn3)c2)on1"
  Obs value: 55.81
- Molecule: "O=C(NS(=O)(=O)c1ccc(-c2cn(CC3COc4ccccc4O3)nn2)cc1)c1cnsc1 (stereo not shown)"
  Obs value: 56.91
- Molecule: "Cc1cc(C(=O)NS(=O)(=O)c2ccc(-c3cn(CCN(C)Cc4cccc(F)c4)nn3)cc2)ccn1"
  Obs value: 56.77
- Molecule: "COCC(=O)NS(=O)(=O)c1ccc(-c2cn(CCN(C)Cc3cccc(F)c3)nn2)cc1"
  Obs value: 56.80

---

Measured target: hCA-II (full-length protein) (Homo sapiens)
Assay info: Thermal shift assay (TSA / differential scanning fluorimetry)
Assay conditions: hCA-II, screening at 40 µM

- Compound: "COCC(=O)NS(=O)(=O)c1ccc(-c2cn(CCN(C)Cc3cccc(F)c3)nn2)cc1"
  Tm / °C: 49.58
- Compound: "O=C(NS(=O)(=O)c1ccc(-c2cn(CC3COc4ccccc4O3)nn2)cc1)c1cnsc1 (stereo not shown)"
  Tm / °C: 54.73
- Compound: "Cc1cc(C(=O)NS(=O)(=O)c2cccc(-n3cc(-c4ccc5nonc5c4)nn3)c2)on1"
  Tm / °C: 55.22
- Compound: "Cc1cc(C(=O)NS(=O)(=O)c2ccc(-c3cn(CCN(C)Cc4cccc(F)c4)nn3)cc2)ccn1"
  Tm / °C: 51.97
